The values you see were collected from patent US20130296258A1.

- TARGET_SYSTEM: T1, mouse GPC3-SK-HEP1 (mouse, UniProt Q8CFZ4)
- T1 construct: cell-surface protein on transfected cells; also called mouse GPC3 transfected SK-Hep1 cells
- T1 sequence (Q8CFZ4 25-553 limits assumed): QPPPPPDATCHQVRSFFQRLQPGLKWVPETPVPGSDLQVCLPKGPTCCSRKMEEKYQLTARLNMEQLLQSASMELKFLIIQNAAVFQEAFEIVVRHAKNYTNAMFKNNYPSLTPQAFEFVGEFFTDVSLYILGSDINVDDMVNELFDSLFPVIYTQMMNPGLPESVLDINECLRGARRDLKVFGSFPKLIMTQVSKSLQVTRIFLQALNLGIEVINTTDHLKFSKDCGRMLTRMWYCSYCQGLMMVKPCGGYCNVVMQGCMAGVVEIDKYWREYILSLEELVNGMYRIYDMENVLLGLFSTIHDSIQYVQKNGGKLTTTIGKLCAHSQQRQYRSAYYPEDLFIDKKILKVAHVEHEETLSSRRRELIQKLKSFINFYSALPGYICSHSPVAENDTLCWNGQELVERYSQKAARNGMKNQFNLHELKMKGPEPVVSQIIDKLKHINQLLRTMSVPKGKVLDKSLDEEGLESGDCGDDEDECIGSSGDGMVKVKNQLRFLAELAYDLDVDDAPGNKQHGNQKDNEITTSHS
- EXPERIMENT_SUMMARY: flow cytometry on SK-HEP1 cells stably transfected with mouse GPC3, detection via rabbit anti-hNGAL antiserum and anti-rabbit IgG-PE
OBSERVABLE: EC50 (nM)

INSERT INTO assay_data (binder, uom, value_reported) VALUES
  ('PIE-G3C (designed binder, C-terminal Strep-tag II; also called Lcn2 mutein; not shown: C-terminal Strep-tag II) QDSTSDLIPAPPLSKVPLQQNFQDNQFHGKWYVVGRAGNVALREDKDPPKMRATIYELKEDKSYNVTNVRFAMKKCMYSIGTFVPGSQPGEFTLGQIKSEPGNTSNLVRVVSTNYNQHAMVFFKEVYQNREIFFITLYGRTKELTSELKENFIRFSKSLGLPENHIVFPVPIDQCIDGSAWSHPQFEK', 'nM', 3.5);
